Molecular target: mouse Kv1.1 (Mus musculus, UniProt P16388)
Construct: expressed in transfected cells; host or cells: L929 cells
Sequence (P16388 whole entry): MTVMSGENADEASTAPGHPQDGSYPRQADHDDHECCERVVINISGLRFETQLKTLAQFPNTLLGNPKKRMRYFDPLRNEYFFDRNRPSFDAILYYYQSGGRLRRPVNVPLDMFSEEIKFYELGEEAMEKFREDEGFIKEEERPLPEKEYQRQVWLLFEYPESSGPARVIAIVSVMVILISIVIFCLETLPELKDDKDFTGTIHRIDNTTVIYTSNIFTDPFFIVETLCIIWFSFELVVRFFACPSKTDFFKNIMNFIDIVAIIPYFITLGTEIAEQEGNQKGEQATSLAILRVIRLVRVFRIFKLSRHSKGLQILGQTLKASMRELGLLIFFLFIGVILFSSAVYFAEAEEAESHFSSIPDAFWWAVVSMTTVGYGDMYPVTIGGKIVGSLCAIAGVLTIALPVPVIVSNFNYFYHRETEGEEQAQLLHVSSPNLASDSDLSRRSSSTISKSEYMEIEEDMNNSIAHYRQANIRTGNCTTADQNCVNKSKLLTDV
Experiment: Patch-clamp of mouse Kv1.1 stably expressed in L929 cells
Type: cell-based
Conditions: inferred from block at 10 μM
quantity-measured: IC50

Which IC50 value is on record for `CC(C)/N=c1\cc2n(-c3ccc(Cl)cc3)c3ccccc3nc-2cc1Nc1ccc(Cl)cc1` ?
> 10 µM
